- ASSAY DETAILS: AUC (0 to infinity) in Sprague-Dawley rat at 10 mg/kg, po measured up to 24 hrs by LC-MS/MS analysis
- Format: ADME, organism-based
- Design: route oral, dose 10 mg/kg, time <=24
- COND: in vivo
METRIC: AUC(0-inf) (ng·h/mL)
// units = ng·h/mL; emit number, no label

Sample "CCCCCCCC(=O)Nc1nc2[nH]c(CN3CCN(Cc4cccc(F)c4)CC3)c(CN3CCN(Cc4cccc(F)c4)CC3)c2c(=O)[nH]1" — what was its AUC(0-inf)? 61.7

* * *

- TARGET OF ASSAY: Fibroblast growth factor receptor 2 (Homo sapiens)
- ASSAY DETAILS: Inhibition of human FGFR2 at 10 uM using myelin basic protein as substrate incubated for 40 mins in presence of [gamma33P]ATP by scintillation counting method relative to control
Here, each record is paired with measured inhibition data.
// units = %; emit number, no label

Answered cases to consult:
SMI: CCCCCCCC(=O)Nc1nc2[nH]c(CN3CCN(Cc4ccc(F)cc4)CC3)c(CN3CCN(Cc4ccc(F)cc4)CC3)c2c(=O)[nH]1
inhibition, %: 14.7
//
SMI: CCCCCCCC(=O)Nc1nc2[nH]c(CN3CCN(Cc4ccccc4)CC3)c(CN3CCN(Cc4ccccc4)CC3)c2c(=O)[nH]1
inhibition, %: 24
//
SMI: Nc1nc2[nH]c(CN3CCN(c4cc(Cl)cc(Cl)c4)CC3)c(CN3CCN(c4cc(Cl)cc(Cl)c4)CC3)c2c(=O)[nH]1
inhibition, %: -0.49
//
SMI: CCCCCCCC(=O)Nc1nc2[nH]c(CN3CCN(Cc4ccccc4F)CC3)c(CN3CCN(Cc4ccccc4F)CC3)c2c(=O)[nH]1
inhibition, %: 23

Kindly review the next molecule as well.
Sample "CCCCCCCC(=O)Nc1nc2[nH]c(CN3CCN(Cc4cccc(F)c4)CC3)c(CN3CCN(Cc4cccc(F)c4)CC3)c2c(=O)[nH]1" — what was its inhibition? 25.9

* * *

- ASSAY DETAILS: Tmax in Sprague-Dawley rat at 10 mg/kg, po measured up to 24 hrs by LC-MS/MS analysis
- Type: ADME, organism-based
- COND: in vivo
METRIC: Tmax (h)
// units = h; emit number, no label

Sample "CCCCCCCC(=O)Nc1nc2[nH]c(CN3CCN(Cc4cccc(F)c4)CC3)c(CN3CCN(Cc4cccc(F)c4)CC3)c2c(=O)[nH]1" — what was its Tmax? 2.25
